Would you kindly list Activity for each of these molecules?
Tested on: MES-SA
testDescription: Induction of apoptosis in human MES-SA cells assessed as apoptotic cells at 100 nM incubated for 24 hrs by live/dead orange and TUNEL staining based flow cytometry analysis relative to control
Format: functional
Give bare numbers, in %.

Example entries begin here.
1. COc1cc(S(=O)(=O)Nc2ccc3c(c2)c(C#N)cn3C)cc(OC)c1OC    5.8
2. COc1cc(S(=O)(=O)N(C)c2ccc3c(c2)c(C#N)cn3C)cc(OC)c1OC    5
3. COc1cc(S(=O)(=O)N(CC#N)c2ccc3c(ccn3C)c2)cc(OC)c1OC    3.1
4. COc1cc(S(=O)(=O)Nc2ccc3c(ccn3C)c2)cc(OC)c1OC    4.2
5. COc1cc(S(=O)(=O)N(C)c2ccc3c(c2)c(C(N)=O)cn3C)cc(OC)c1OC    4.8

Okay, next one:
Prompt: Report Activity for COc1cc(S(=O)(=O)N(C)c2ccc3c(ccn3C)c2)cc(OC)c1OC tested on MES-SA.
Completion: 5.7
